Tested on: Escherichia coli
protocol_description: Antimicrobial activity against Escherichia coli K-12 mutant assessed as growth inhibition at 100 uM relative to control
Assay type: functional
outcome_measure: inhibition at 100 µM (%)
Answer with a number only, understood to be in %.

Previously resolved entries follow.
structure_as_smiles: CC(C)[C@H](N[C@H](N)C(=O)Nc1csc(-c2ccccc2)n1)C(=O)O
inhibition at 100 µM [%]: 13

structure_as_smiles: N[C@@H](NCC(=O)O)C(=O)Nc1csc(-c2ccccc2)n1
inhibition at 100 µM [%]: 22

structure_as_smiles: CC(C)C[C@H](N[C@H](N)C(=O)Nc1csc(-c2ccccc2)n1)C(=O)O
inhibition at 100 µM [%]: 18

Q: Reported inhibition at 100 µM for Cc1cc(-c2csc(NC(=O)[C@@H](N)NCC(=O)O)n2)c(C)n1C : what is it?
Ans: 13

Q: # get_value(readout='inhibition at 100 µM', item= CCn1c(C)cc(-c2csc(NC(=O)[C@@H](N)NCC(=O)O)n2)c1C )
Ans: 13
